These data points were gathered from the supplement of paper PMC7125110.

B1: glmS ribozyme (parent)
chain: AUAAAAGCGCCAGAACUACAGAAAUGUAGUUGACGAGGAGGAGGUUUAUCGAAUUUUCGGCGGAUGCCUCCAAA

# Variants of: B1
# Assay Protocol: self-cleavage kobs at 640 uM GlcN6P; higher = faster cleavage; RNA array
# Settings: with glucosamine-6-phosphate
Fewer inactive variants are shown than the library holds.
Field: self-cleavage kobs at 640 uM GlcN6P. Provide a value for each of the variants that follow.
Give the number; s⁻¹ is assumed, so skip it.

self-cleavage kobs at 640 uM GlcN6P for A15G C50G C68U is 0.000492

self-cleavage kobs at 640 uM GlcN6P for G29A G38C C70A is 6.65e-05

self-cleavage kobs at 640 uM GlcN6P for C67A U69G is 6.63e-05

self-cleavage kobs at 640 uM GlcN6P for A15C G37A A42G is 8.69e-05

self-cleavage kobs at 640 uM GlcN6P for U47C A52G is 9.21e-05

self-cleavage kobs at 640 uM GlcN6P for U47C U49G is 6.46e-05

self-cleavage kobs at 640 uM GlcN6P for A15U G32A U46G C50G is 8.2e-05

self-cleavage kobs at 640 uM GlcN6P for G32U A53C is 0.000104

self-cleavage kobs at 640 uM GlcN6P for G41U is 0.00102

self-cleavage kobs at 640 uM GlcN6P for C11U A15G C70U is 0.000677

self-cleavage kobs at 640 uM GlcN6P for U57G C70G is 0.000103

self-cleavage kobs at 640 uM GlcN6P for G13A G32C G43C C68G is 7.7e-05

self-cleavage kobs at 640 uM GlcN6P for G37A U55C U56G is 0.000171

self-cleavage kobs at 640 uM GlcN6P for A39C A64G is 0.0014

self-cleavage kobs at 640 uM GlcN6P for G37A C68U is 1.94e-05

self-cleavage kobs at 640 uM GlcN6P for A15U U46G A53U C67U is 6.64e-05

self-cleavage kobs at 640 uM GlcN6P for G40C U47G is 0.000157

self-cleavage kobs at 640 uM GlcN6P for A6U U54C C68G U69G is 0.00033

self-cleavage kobs at 640 uM GlcN6P for A14G C67G is 0.00104

self-cleavage kobs at 640 uM GlcN6P for A33G C34A U55A C70A is 9.12e-05
